- targetOfAssay: Thromboxane-A synthase (Homo sapiens)
- Sequence (P24557 whole entry): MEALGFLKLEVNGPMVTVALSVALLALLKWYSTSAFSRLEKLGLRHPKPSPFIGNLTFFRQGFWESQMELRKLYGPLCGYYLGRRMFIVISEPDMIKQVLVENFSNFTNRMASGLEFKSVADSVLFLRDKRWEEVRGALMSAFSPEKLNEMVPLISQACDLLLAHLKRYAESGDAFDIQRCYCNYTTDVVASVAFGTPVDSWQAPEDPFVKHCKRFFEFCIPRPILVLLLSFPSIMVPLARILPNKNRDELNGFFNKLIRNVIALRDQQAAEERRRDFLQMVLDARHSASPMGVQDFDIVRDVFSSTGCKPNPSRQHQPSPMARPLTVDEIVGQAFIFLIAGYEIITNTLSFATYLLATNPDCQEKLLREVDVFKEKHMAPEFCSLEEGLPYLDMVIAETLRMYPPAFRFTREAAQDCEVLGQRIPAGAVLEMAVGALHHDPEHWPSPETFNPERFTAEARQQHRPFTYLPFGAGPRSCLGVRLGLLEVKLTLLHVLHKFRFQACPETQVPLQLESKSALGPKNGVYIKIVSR
- experimentalProtocol: In vitro TXA2 synthase antagonism through inhibition of collagen induced thromboxane-A2 production in human citreated whole blood
valueType: IC50

Use these answered entries as a reference point.
| structureNotation | IC50 |
| --- | --- |
| CCc1ccncc1-c1ccc(CO[C@@H]2CC[C@H](N3CCCCCC3)[C@H]2OC/C=C\CCC(=O)O)cc1 | 2.51 µM |
| O=C(O)CC/C=C\CO[C@H]1[C@H](OCc2ccc(-c3cnccc3CCO)cc2)CC[C@@H]1N1CCCCCC1 | > 10 µM |
| O=C(O)CC/C=C\CO[C@H]1[C@H](OCc2ccc(-c3cncc(CO)c3)cc2)CC[C@@H]1N1CCCCCC1 | > 10 µM |

Shifting focus to the molecule that follows.
Lookup: // query IC50 value for entry "O=C(O)CC/C=C\CO[C@H]1[C@H](OCc2ccc(-c3cccnc3)cc2)CC[C@@H]1N1CCCCCC1"
Found: 0.631 µM

These measurements were taken from ChEMBL document CHEMBL1151009.
